Tested on: SR leukemia
Test: NCI-60 one-dose screen, 48 h
Conditions: 10 µM unless noted
The panel holds about 83,000 compounds, 20% with a hit somewhere; the sample as a whole holds those more often. Activity calls are given as the source filed them. How the source made its calls: active means growth percent below 10; inactive means the rest.
Classes used: y (active), n (inactive)

C=C(CC(=O)OC)C(C)=O	n
C=CCCCCOc1ccccc1-c1cnc(OCCCCC=C)n1C	n
Cc1ccc2c(n1)C(=O)C(Cl)=C(Nc1ccc(N3CCN(C)CC3)cc1)C2=O	y
Nc1cc(C(=O)O)[nH]c(=S)n1	n
Cc1ccc(S(=O)(=O)NCCCNc2nccc(-c3c(-c4cccc(F)c4)nc4occn34)n2)cc1	n
Brc1ccc2c(c1)CN(C1CCCCC1)CO2	n
COc1ccc2nc3c(cc2c1)C(=O)CC(C(F)(F)F)C3 (stereo not given)	n
O=c1[nH]cnc2c1ccn2C1OC(CO)C(O)C1O (stereo not given)	n
O=C(CSc1nc2ccc([N+](=O)[O-])cc2[nH]1)Nc1ccc(F)c(Cl)c1	y
CC1(C)CC[C@]2(C(=O)O)CC[C@]3(C)[C@H](CC[C@@H]4[C@@]5(C)CCC(=O)C(C)(C)[C@@H]5CC[C@]43C)[C@H]2[C@H]1OC(=O)C(F)(F)F	n
Cc1cc[n+](CCCCCCCCCC[n+]2ccc(C)cc2)cc1	n
CN(C)C(=S)Sc1ccc([N+](=O)[O-])cc1[N+](=O)[O-]	y
Cc1cc(SC#N)ncn1	n
COC(=O)c1cc(O)c2c(c1C(=O)OC)C[C@H]1[C@@H]3CC=C4C[C@@H](O)CC[C@]4(C)[C@H]3CC[C@]21C	n
O=C(Nc1cccc2cccnc12)c1cc(C(=O)c2ccc(Cl)cc2)n2ccc(-c3ccncc3)cc12	n
COc1ccc(C2=C(c3cn(C)c4ccccc34)C(=O)OC2)cc1OC	n
O=C(OCc1ccc2c(Cl)cc(Cl)c(O)c2n1)N1CCN(C(=O)c2cc3cc(F)ccc3[nH]2)CC1	n
Cc1ccc(-c2cc(-c3ccc(C)cc3)nc(N3CCN(CCNc4ccnc5cc(Cl)ccc45)CC3)n2)cc1	y
N#C/C(C(=O)c1ccccc1)=C1/C(=O)Nc2ccc(F)cc21	n
C#CCNC(=O)CC[C@]1(C)[C@H]2CC[C@@H]3[C@@H]([C@@](C)(O)CCC=C(C)C)CC[C@@]3(C)[C@]2(C)CC[C@H]1C(=C)C	n

====

System: NCI-H23 lung
Experiment: NCI-60 one-dose screen, 48 h
Details: 10 µM unless noted
About 83,000 compounds went through this panel and 20% of them were active in at least one assay; those are over-represented in the sample as a whole. Active and inactive are the calls of the source. Rule for the calls: active = growth percent below 10; inactive = the rest.
Classes used: yes (active), no (inactive)

COC(=O)c1cc(O)c2c(c1C(=O)OC)C[C@H]1[C@@H]3CC=C4C[C@@H](O)CC[C@]4(C)[C@H]3CC[C@]21C	no
C#C[C@]1(O)CC[C@H]2[C@@H]3CC=C4c5nc(Nc6ccc(OC)cc6OC)sc5CC[C@]4(C)[C@H]3CC[C@@]21C	no
COc1c(B(O)O)cccc1-c1nc2ccc3[nH]ncc3c2c2c1CCC2	no
CCOc1ccc(/C=C(\C#N)c2cc3ccccc3[nH]2)cc1	no
COc1ccc(C=C2c3ccccc3-c3ccccc32)cc1	no
CCc1ccc(C2=C/C(=C/c3ccccc3)C(=O)N2CCc2ccc(S(N)(=O)=O)cc2)cc1	no
Cc1ccc(S(=O)(=O)n2cc(C(=O)C(=O)N3CCCCC3)c3ccccc32)cc1	no
Cn1cc(-c2noc(-c3cn(C)c4ncccc34)n2)c2cc(Cl)ccc21	no
COc1cc(-c2cc(-c3ccc(Nc4ncnc5cc(Cl)ccc45)cc3)nc(N3CCCCC3)n2)cc(OC)c1OC	no
N#CC1C(=O)NC(c2ccccc2[N+](=O)[O-])c2sc3c(F)cccc3c21 (centres undefined)	no
CCN(CC)CCCCCCNc1cccc2cc(Br)cnc12	no
CC1(C)CC[C@]23CC[C@]4(C)[C@H](CC[C@@H]5[C@@]6(C)C/C(=C/c7ccncc7)C(=O)C(C)(C)[C@@H]6CC[C@]54C)[C@H]2[C@H]1OC3=O	no
O=C(N/N=C1\c2ccccc2-c2cccc(C(=O)O)c21)c1ccc(O)cc1	no
COc1cc2c(cc1OC(C)=O)C(=O)CCCC2	no
CC(C)C1=NOC(=O)C1=Cc1cn(-c2ccccc2)nc1-c1ccc(Br)cc1	no
COc1ccc(/C=C(/C2=NCCN2)n2ccc3ccccc32)cc1	no
CCNC(=O)N1CCc2c(Cl)c3c(c(OC)c2[C@@H]1[C@H]1OCc2c1ccc(OC)c2OC)OCCO3	no
C#CCNC(=O)CC[C@]1(C)[C@H]2CC[C@@H]3[C@@H]([C@@](C)(O)CCC=C(C)C)CC[C@@]3(C)[C@]2(C)CC[C@H]1C(=C)C	no
O=C(CCCSc1nc(-c2ccccc2)cc(-c2ccccc2)n1)NO	yes
